# System: F. hepatica cathepsin L2
# protocol.summary: Enzyme kinetic studies, cathepsin L2
# Format: biochemical, Fasciola hepatica
# condition.notes: 0.1M glycine pH 7.0, 37° C.
Starred links: 1 amine or outer side, 2 acyl side, 3 side chain; linkers in the order of their positions; H or OH if unused. Residues, ends and D or L forms follow the SMILES beside them. *: point of attachment. AMC = Cc1cc(=O)oc2cc(N*)ccc12; Suc = O=C(CCC(=O)[*:2])[*:1]; Tos = Cc1ccc(S(=O)(=O)*)cc1; Cbz = O=C(OCc1ccccc1)*; Boc = CC(C)(C)OC(=O)*; Bz = O=C(c1ccccc1)*
attribute.measured: Kcat (s⁻¹)
Please reply with the bare figure in s⁻¹ and do not write the unit itself.

So what Kcat did Cc1cc(=O)oc2cc(NC(=O)[C@H](CCCN=C(N)N)NC(=O)[C@@H]3CCCN3C(=O)[C@@H](NC(=O)OC(C)(C)C)C(C)C)ccc12 [Boc-Val-Pro-Arg-AMC] (Boc-Val-Pro-Arg-{AMC}) get with F. hepatica cathepsin L2?
1.19

Let us now turn to Cc1cc(=O)oc2cc(NC(=O)[C@H](CCCCN)NC(=O)[C@H](Cc3ccccc3)NC(=O)[C@H](C)NC(=O)CCC(=O)O)ccc12 [Suc-Ala-Phe-Lys-AMC] (Suc-Ala-Phe-Lys-{AMC})
0.14

Let us now turn to Cc1cc(=O)oc2cc(NC(=O)[C@H](CCCN=C(N)N)NC(=O)[C@@H](NC(=O)[C@H](Cc3ccccc3)NC(=O)c3ccccc3)C(C)C)ccc12 [Bz-Phe-Val-Arg-AMC] (Bz-Phe-Val-Arg-{AMC})
0.06

Let us now turn to Cc1cc(=O)oc2cc(NC(=O)[C@H](CCCNC(=N)N)NC(=O)[C@H](Cc3ccccc3)NC(=O)OCc3ccccc3)ccc12 [Z-Phe-Arg-AMC] (Cbz-Phe-Arg-{AMC})
0.56

Let us now turn to Cc1ccc(S(=O)(=O)NCC(=O)N2CCC[C@H]2C(=O)N[C@@H](CCCCN)C(=O)Nc2ccc3c(C)cc(=O)oc3c2)cc1 [Tos-Gly-Pro-Lys-AMC] (Tos-Gly-Pro-Lys-{AMC})
1.37

Let us now turn to Cc1cc(=O)oc2cc(NC(=O)[C@H](CCCCN)NC(=O)[C@H](CC(C)C)NC(=O)[C@@H](NC(=O)OC(C)(C)C)C(C)C)ccc12 [Boc-Val-Leu-Lys-AMC] (Boc-Val-Leu-Lys-{AMC})
3.75

Let us now turn to Cc1cc(=O)oc2cc(NC(=O)[C@H](CCCN=C(N)N)NC(=O)OCc3ccccc3)ccc12
0.09

Let us now turn to Cc1cc(=O)oc2cc(NC(=O)[C@H](CCCN=C(N)N)NC(=O)[C@H](CCCN=C(N)N)NC(=O)OCc3ccccc3)ccc12 [Z-Arg-Arg-AMC] (Cbz-Arg-Arg-{AMC})
0.02

Let us now turn to Cc1cc(=O)oc2cc(NC(=O)[C@H](Cc3ccc(O)cc3)NC(=O)[C@@H](NC(=O)[C@@H](N)CC(C)C)C(C)C)ccc12 [H-Leu-Val-Tyr-AMC] (H-Leu-Val-Tyr-{AMC})
0.21

Let us now turn to Cc1cc(=O)oc2cc(NC(=O)[C@H](Cc3ccc(O)cc3)NC(=O)[C@@H](NC(=O)[C@H](CC(C)C)NC(=O)[C@H](CC(C)C)NC(=O)CCC(=O)O)C(C)C)ccc12 [Suc-Leu-Leu-Val-Tyr-AMC] (Suc-LLVY-{AMC})
0.08

Let us now turn to Cc1ccc(S(=O)(=O)NCC(=O)N2CCC[C@H]2C(=O)N[C@@H](CCCNC(=N)N)C(=O)Nc2ccc3c(C)cc(=O)oc3c2)cc1 [Tos-Gly-Pro-Arg-AMC] (Tos-Gly-Pro-Arg-{AMC})
1.93

###

Please provide measured log10 of Km for the entries that follow.
# Tested on: F. hepatica cathepsin L1
# protocol.summary: Enzyme kinetic studies, cathepsin L1
# Type: biochemical, Fasciola hepatica
# condition.notes: 0.1M glycine pH 7.0, 37° C.
Starred links: 1 amine or outer side, 2 acyl side, 3 side chain; linkers in the order of their positions; H or OH if unused. Residues, ends and D or L forms follow the SMILES beside them. *: point of attachment. AMC = Cc1cc(=O)oc2cc(N*)ccc12; Suc = O=C(CCC(=O)[*:2])[*:1]; Tos = Cc1ccc(S(=O)(=O)*)cc1; Cbz = O=C(OCc1ccccc1)*; Boc = CC(C)(C)OC(=O)*; Bz = O=C(c1ccccc1)*
On a log10 scale: recorded Km, unit µM.

Endpoint output: log10 of Km of Cc1cc(=O)oc2cc(NC(=O)[C@H](CCCCN)NC(=O)[C@H](CC(C)C)NC(=O)[C@@H](NC(=O)OC(C)(C)C)C(C)C)ccc12 [Boc-Val-Leu-Lys-AMC] (Boc-Val-Leu-Lys-{AMC}) . Value?
1.54

Let us now turn to Cc1cc(=O)oc2cc(NC(=O)[C@H](CCCN=C(N)N)NC(=O)[C@@H](NC(=O)[C@H](Cc3ccccc3)NC(=O)c3ccccc3)C(C)C)ccc12 [Bz-Phe-Val-Arg-AMC] (Bz-Phe-Val-Arg-{AMC})
0.97

Let us now turn to Cc1cc(=O)oc2cc(NC(=O)[C@H](CCCN=C(N)N)NC(=O)OCc3ccccc3)ccc12 [Z-Arg-AMC]
1.31

Let us now turn to Cc1ccc(S(=O)(=O)NCC(=O)N2CCC[C@H]2C(=O)N[C@@H](CCCCN)C(=O)Nc2ccc3c(C)cc(=O)oc3c2)cc1 [Tos-Gly-Pro-Lys-AMC] (Tos-Gly-Pro-Lys-{AMC})
2.03

Let us now turn to Cc1cc(=O)oc2cc(NC(=O)[C@H](CCCNC(=N)N)NC(=O)[C@H](Cc3ccccc3)NC(=O)OCc3ccccc3)ccc12 [Z-Phe-Arg-AMC] (Cbz-Phe-Arg-{AMC})
1.17

Let us now turn to Cc1cc(=O)oc2cc(NC(=O)[C@H](Cc3ccc(O)cc3)NC(=O)[C@@H](NC(=O)[C@@H](N)CC(C)C)C(C)C)ccc12 [H-Leu-Val-Tyr-AMC] (H-Leu-Val-Tyr-{AMC})
0.73

Let us now turn to Cc1cc(=O)oc2cc(NC(=O)[C@H](Cc3ccc(O)cc3)NC(=O)[C@@H](NC(=O)[C@H](CC(C)C)NC(=O)[C@H](CC(C)C)NC(=O)CCC(=O)O)C(C)C)ccc12 [Suc-Leu-Leu-Val-Tyr-AMC] (Suc-LLVY-{AMC})
1.59

Let us now turn to Cc1cc(=O)oc2cc(NC(=O)[C@H](CCCN=C(N)N)NC(=O)[C@H](CCCN=C(N)N)NC(=O)OCc3ccccc3)ccc12 [Z-Arg-Arg-AMC] (Cbz-Arg-Arg-{AMC})
1.82

###

# Tested on: F. hepatica cathepsin L2
# protocol.summary: Enzyme kinetic studies, cathepsin L2
# Type: biochemical, Fasciola hepatica
# condition.notes: 0.1M glycine pH 7.0, 37° C.
Residues, ends and D or L forms follow the SMILES beside them. *: point of attachment. AMC = Cc1cc(=O)oc2cc(N*)ccc12; Tos = Cc1ccc(S(=O)(=O)*)cc1; Cbz = O=C(OCc1ccccc1)*; Bz = O=C(c1ccccc1)*
attribute.measured: Km (µM)
Please reply with the bare figure in µM and do not write the unit itself.

Endpoint output: Km of Cc1cc(=O)oc2cc(NC(=O)[C@H](CCCN=C(N)N)NC(=O)[C@@H](NC(=O)[C@H](Cc3ccccc3)NC(=O)c3ccccc3)C(C)C)ccc12 [Bz-Phe-Val-Arg-AMC] (Bz-Phe-Val-Arg-{AMC}) . Value?
1.2

Let us now turn to Cc1cc(=O)oc2cc(NC(=O)[C@H](CCCN=C(N)N)NC(=O)[C@H](CCCN=C(N)N)NC(=O)OCc3ccccc3)ccc12 [Z-Arg-Arg-AMC] (Cbz-Arg-Arg-{AMC})
9.07

Let us now turn to Cc1ccc(S(=O)(=O)NCC(=O)N2CCC[C@H]2C(=O)N[C@@H](CCCCN)C(=O)Nc2ccc3c(C)cc(=O)oc3c2)cc1 [Tos-Gly-Pro-Lys-AMC] (Tos-Gly-Pro-Lys-{AMC})
35.5

###

Please provide measured Kcat for the entries that follow.
# System: F. hepatica cathepsin L1
# protocol.summary: Enzyme kinetic studies, cathepsin L1
# Format: biochemical, Fasciola hepatica
# condition.notes: 0.1M glycine pH 7.0, 37° C.
Starred links: 1 amine or outer side, 2 acyl side, 3 side chain; linkers in the order of their positions; H or OH if unused. Residues, ends and D or L forms follow the SMILES beside them. *: point of attachment. AMC = Cc1cc(=O)oc2cc(N*)ccc12; Suc = O=C(CCC(=O)[*:2])[*:1]; Tos = Cc1ccc(S(=O)(=O)*)cc1; Cbz = O=C(OCc1ccccc1)*; Boc = CC(C)(C)OC(=O)*; Bz = O=C(c1ccccc1)*
Please reply with the bare figure in s⁻¹ and do not write the unit itself.

So what Kcat did Cc1cc(=O)oc2cc(NC(=O)[C@H](CCCN=C(N)N)NC(=O)[C@@H](NC(=O)[C@H](Cc3ccccc3)NC(=O)c3ccccc3)C(C)C)ccc12 [Bz-Phe-Val-Arg-AMC] (Bz-Phe-Val-Arg-{AMC}) get with F. hepatica cathepsin L1?
0.03

Let us now turn to Cc1cc(=O)oc2cc(NC(=O)[C@H](Cc3ccc(O)cc3)NC(=O)[C@@H](NC(=O)[C@H](CC(C)C)NC(=O)[C@H](CC(C)C)NC(=O)CCC(=O)O)C(C)C)ccc12 [Suc-Leu-Leu-Val-Tyr-AMC] (Suc-LLVY-{AMC})
0.01

Let us now turn to Cc1ccc(S(=O)(=O)NCC(=O)N2CCC[C@H]2C(=O)N[C@@H](CCCCN)C(=O)Nc2ccc3c(C)cc(=O)oc3c2)cc1 [Tos-Gly-Pro-Lys-AMC] (Tos-Gly-Pro-Lys-{AMC})
0.03

Let us now turn to Cc1cc(=O)oc2cc(NC(=O)[C@H](CCCCN)NC(=O)[C@H](CC(C)C)NC(=O)[C@@H](NC(=O)OC(C)(C)C)C(C)C)ccc12 [Boc-Val-Leu-Lys-AMC] (Boc-Val-Leu-Lys-{AMC})
7.90

Let us now turn to Cc1cc(=O)oc2cc(NC(=O)[C@H](CCCN=C(N)N)NC(=O)[C@@H]3CCCN3C(=O)[C@@H](NC(=O)OC(C)(C)C)C(C)C)ccc12 [Boc-Val-Pro-Arg-AMC] (Boc-Val-Pro-Arg-{AMC})
0.02

Let us now turn to Cc1cc(=O)oc2cc(NC(=O)[C@H](CCCN=C(N)N)NC(=O)[C@H](CCCN=C(N)N)NC(=O)OCc3ccccc3)ccc12 [Z-Arg-Arg-AMC] (Cbz-Arg-Arg-{AMC})
0.002

Let us now turn to Cc1cc(=O)oc2cc(NC(=O)[C@H](CCCNC(=N)N)NC(=O)[C@H](Cc3ccccc3)NC(=O)OCc3ccccc3)ccc12 [Z-Phe-Arg-AMC] (Cbz-Phe-Arg-{AMC})
1.08

Let us now turn to Cc1cc(=O)oc2cc(NC(=O)[C@H](CCCCN)NC(=O)[C@H](Cc3ccccc3)NC(=O)[C@H](C)NC(=O)CCC(=O)O)ccc12 [Suc-Ala-Phe-Lys-AMC] (Suc-Ala-Phe-Lys-{AMC})
0.05

Let us now turn to Cc1cc(=O)oc2cc(NC(=O)[C@H](Cc3ccc(O)cc3)NC(=O)[C@@H](NC(=O)[C@@H](N)CC(C)C)C(C)C)ccc12 [H-Leu-Val-Tyr-AMC] (H-Leu-Val-Tyr-{AMC})
0.02

Let us now turn to Cc1cc(=O)oc2cc(NC(=O)[C@H](CCCN=C(N)N)NC(=O)OCc3ccccc3)ccc12 [Z-Arg-AMC]
0.04

Let us now turn to Cc1ccc(S(=O)(=O)NCC(=O)N2CCC[C@H]2C(=O)N[C@@H](CCCNC(=N)N)C(=O)Nc2ccc3c(C)cc(=O)oc3c2)cc1 [Tos-Gly-Pro-Arg-AMC] (Tos-Gly-Pro-Arg-{AMC})
0.03
